All figures here come from paper PMC7297445.

- protocol notes: Intravenous pharmacokinetics of ETX1317
- Assay type: in vivo
- setup conditions: male, dog, plasma, i.v. 1 mg/kg
assay endpoint: half-life
Please make sure the unit comes right after the number.

Requested field: half-life. Item: CC1=C[C@@H](C(N)=O)N2C[C@@H]1N(O[C@H](F)C(=O)O)C2=O
48 min

====

- protocol notes: Intravenous pharmacokinetics of ETX1317
- Format: in vivo
- setup conditions: male, dog, plasma, i.v. 1 mg/kg
assay endpoint: Cmax
Please make sure the unit comes right after the number.

Requested field: Cmax. Item: CC1=C[C@@H](C(N)=O)N2C[C@@H]1N(O[C@H](F)C(=O)O)C2=O
2270 ng/mL

====

- protocol notes: Intravenous pharmacokinetics of ETX1317
- Format: in vivo
- setup conditions: male, dog, plasma, i.v. 1 mg/kg, read-out: CL
assay endpoint: clearance

Requested field: clearance. Item: CC1=C[C@@H](C(N)=O)N2C[C@@H]1N(O[C@H](F)C(=O)O)C2=O
5.7 mL/min/kg

====

- protocol notes: Intravenous pharmacokinetics of ETX1317
- Format: in vivo
- setup conditions: male, dog, plasma, i.v. 1 mg/kg
assay endpoint: AUC
Please make sure the unit comes right after the number.

Requested field: AUC. Item: CC1=C[C@@H](C(N)=O)N2C[C@@H]1N(O[C@H](F)C(=O)O)C2=O [ETX1317]
2760 ng·h/mL

====

- protocol notes: Intravenous pharmacokinetics of ETX1317
- Format: in vivo, monkey
- setup conditions: male, monkey, urine and plasma, iv; i.v. 0.87 mg/kg; read-out: renal CL
assay endpoint: clearance
Please make sure the unit comes right after the number.

Requested field: clearance. Item: CC1=C[C@@H](C(N)=O)N2C[C@@H]1N(O[C@H](F)C(=O)O)C2=O [ETX1317]
2.2 mL/min/kg

====

- protocol notes: Intravenous pharmacokinetics of ETX1317
- Type: in vivo, rat
- setup conditions: male, Sprague-Dawley, rat, plasma, iv, 10 mg/kg, i.v. 10 mg/kg; read-out: CL
assay endpoint: clearance (mL/min/kg)
One number for each entry, in mL/min/kg.

Requested field: clearance. Item: CC1=C[C@@H](C(N)=O)N2C[C@@H]1N(O[C@H](F)C(=O)O)C2=O [ETX1317]
23

====

- protocol notes: Intravenous pharmacokinetics of ETX1317
- Type: in vivo
- setup conditions: male, dog, plasma, i.v. 1 mg/kg, read-out: Vd,ss
assay endpoint: Vd (L/kg)
Numbers only, in L/kg.

Requested field: Vd. Item: CC1=C[C@@H](C(N)=O)N2C[C@@H]1N(O[C@H](F)C(=O)O)C2=O
0.38

====

- protocol notes: Intravenous pharmacokinetics of ETX1317
- Format: in vivo, monkey
- setup conditions: male, monkey, plasma, iv; i.v. 0.87 mg/kg
assay endpoint: Cmax (ng/mL)
One number for each entry, in ng/mL.

Requested field: Cmax. Item: CC1=C[C@@H](C(N)=O)N2C[C@@H]1N(O[C@H](F)C(=O)O)C2=O
3120

====

- protocol notes: Intravenous pharmacokinetics of ETX1317
- Assay type: in vivo, monkey
- setup conditions: male, monkey, plasma, iv; i.v. 0.87 mg/kg
assay endpoint: half-life (h)
Answers are plain numbers, in h.

Requested field: half-life. Item: CC1=C[C@@H](C(N)=O)N2C[C@@H]1N(O[C@H](F)C(=O)O)C2=O
1.1

====

- protocol notes: Intravenous pharmacokinetics of ETX1317
- Assay type: in vivo, rat
- setup conditions: male, Sprague-Dawley, rat, urine and plasma, iv, 10 mg/kg, i.v. 10 mg/kg; read-out: renal CL
assay endpoint: clearance (mL/min/kg)
Give bare numbers, in mL/min/kg.

Requested field: clearance. Item: CC1=C[C@@H](C(N)=O)N2C[C@@H]1N(O[C@H](F)C(=O)O)C2=O
13.4

====

- protocol notes: Intravenous pharmacokinetics of ETX1317
- Format: in vivo, monkey
- setup conditions: male, monkey, plasma, iv; i.v. 0.87 mg/kg; read-out: CL
assay endpoint: clearance (mL/min/kg)
Answers are plain numbers, in mL/min/kg.

Requested field: clearance. Item: CC1=C[C@@H](C(N)=O)N2C[C@@H]1N(O[C@H](F)C(=O)O)C2=O
5.7

====

- protocol notes: Intravenous pharmacokinetics of ETX1317
- Assay type: in vivo, rat
- setup conditions: male, Sprague-Dawley, rat, plasma, iv; i.v. 10 mg/kg
assay endpoint: AUC (ng·h/mL)
Answers are plain numbers, in ng·h/mL.

Requested field: AUC. Item: CC1=C[C@@H](C(N)=O)N2C[C@@H]1N(O[C@H](F)C(=O)O)C2=O
7190

====

- protocol notes: Intravenous pharmacokinetics of ETX1317
- Format: in vivo
- setup conditions: male, dog, urine and plasma, i.v. 1 mg/kg, read-out: renal CL
assay endpoint: clearance (mL/min/kg)
Numbers only, in mL/min/kg.

Requested field: clearance. Item: CC1=C[C@@H](C(N)=O)N2C[C@@H]1N(O[C@H](F)C(=O)O)C2=O [ETX1317]
1.1

====

- protocol notes: Intravenous pharmacokinetics of ETX1317
- Format: in vivo, rat
- setup conditions: male, Sprague-Dawley, rat, plasma, iv; i.v. 10 mg/kg
assay endpoint: half-life (min)
Give bare numbers, in min.

Requested field: half-life. Item: CC1=C[C@@H](C(N)=O)N2C[C@@H]1N(O[C@H](F)C(=O)O)C2=O [ETX1317]
24

====

Would you mind telling me the reported fraction unbound at 15 min of each entry?
- protocol notes: Plasma protein binding
- Type: in vitro ADME, mouse
- setup conditions: mouse plasma; read-out: percent unbound
Numbers only.

{"columns": ["smiles string", "assay endpoint", "observed result"],
 "data": [
  ["COCC1=C(C(=O)O)N2C(=O)[C@@H](NC(=O)/C(=N\\OC)c3csc(N)n3)[C@H]2SC1", "fraction unbound at 15 min", 0.66]
]}

// next item, fraction unbound at 15 min requested
Requested field: fraction unbound at 15 min. Item: CC1=C[C@@H](C(N)=O)N2C[C@@H]1N(O[C@H](F)C(=O)O)C2=O
0.93
